# test_method_notes: Trypanosoma cruzi growth suppression in host cells – NIH3T3 host cells, beta-gal luminescence, confirmation (AID 2044);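 further: intracellular parasites grown in NIH/3T3 mouse fibroblasts as host cells; luminescent beta-galactosidase reporter signal from transgenic T. cruzi replicating inside host cells; inhibitors lower the luminescence signal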
# Format: functional, cell-based
Calls of active or inactive are those of the source. No stated cut-off is given here; in the data, actives have a measured EC50 and inactives only a lower limit.
property_measured: EC50

- Cc1ccc(C)c(NS(=O)(=O)c2cc(C(=O)N3CCc4ccccc4C3)ccc2Cl)c1: 2.06 µM (active)
- CCc1ccc(C(=O)Cn2ncc(Cl)c(Cl)c2=O)cc1: 2.19 µM (active)
- CC(C)CCNc1nc(N2CCCC2)c2c(c1C#N)CCN(C)C2: 0.1 µM (active)
- Cc1ccc2sc(N(CCCN(C)C)C(=O)CCS(=O)(=O)c3ccccc3)nc2c1C: 0.226 µM (active)
- CS(=O)(=O)c1nc(-c2ccco2)cc(C(F)(F)F)n1: 1.61 µM (active)
- O=C(CCl)Nc1ccc(-c2ccccc2)cc1: 1.69 µM (active)
- Oc1nc(CN2CCN(C/C=C/c3ccccc3)CC2)nc2ccccc12: 0.637 µM (active)
- O=S(=O)(N1CCCCC1)N1CCN(CC(O)COc2ccc3cc(Br)ccc3c2)CC1 (stereo unspecified): 2.31 µM (active)
- Cc1cc(C)c(OCCCCN(C)C)c(Br)c1: 0.46 µM (active)
- O=C(NC(=S)Nc1ccccc1C(=O)O)c1ccc(-c2ccc(Br)cc2)o1: 2.13 µM (active)
- Cc1ccc2c(c1)sc[n+]2Cc1ccccc1: 1.87 µM (active)
